target: T1, MHC class I molecule B*0702 (biotin (bound via biotin to streptavidin-coated plates)); assay: iTopia affinity assay (ED50), peptide titration on plate-bound MHC
T1 construct: Methods name B*0702 as the allele used; also called B7; HLA-B7
I'd be grateful if you could share measured EC50 for these entries.
Numbers only, in µM.

Binder	EC50 (µM)
AALLAGRAL [5T4 9 mer peptide 101 (AALLAGRAL)]	7
LPSLRHLDL [5T4 9 mer peptide 117 (LPSLRHLDL)]	5

// next entry
The binder listed as LPSLRQLDL [5T4 9 mer peptide 71 (LPSLRQLDL)] has a reported EC50 of 3
